# PROCEDURE DETAILS: self-splicing fitness, log relative to wild type (ln ratio); higher = more splicing; Tetrahymena group I intron in knt gene, E. coli kanamycin selection, DiMSum; sequences stand for … in CUCUCU…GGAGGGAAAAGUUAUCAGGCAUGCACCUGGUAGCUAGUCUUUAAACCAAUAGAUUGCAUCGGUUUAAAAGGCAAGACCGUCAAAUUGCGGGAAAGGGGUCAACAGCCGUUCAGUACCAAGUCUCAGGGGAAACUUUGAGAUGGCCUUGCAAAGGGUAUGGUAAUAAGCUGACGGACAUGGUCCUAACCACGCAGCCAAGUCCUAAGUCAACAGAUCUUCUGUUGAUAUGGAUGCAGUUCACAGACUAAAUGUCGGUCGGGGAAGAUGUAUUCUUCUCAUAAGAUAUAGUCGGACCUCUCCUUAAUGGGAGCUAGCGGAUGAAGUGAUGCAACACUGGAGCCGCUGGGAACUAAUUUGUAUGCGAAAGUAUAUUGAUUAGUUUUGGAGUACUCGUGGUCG;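 further: selection with 25 µg/mL kanamycin versus none on LB agar overnight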
# MEASUREMENT SETUP: 30 °C
self-splicing fitness (ln) listing for selected sequences.
Lab note: write the figure by itself, no unit.

Below, 10 sequences whose answers are already recorded.
[
  {
    "CONSTRUCT SEQUENCE": "GCGGAGCAAUAUUACGUCGG",
    "REPORTED RESULT": -2.62
  },
  {
    "CONSTRUCT SEQUENCE": "CAGAAGCAAUAUUACGUCUU",
    "REPORTED RESULT": -1.7
  },
  {
    "CONSTRUCT SEQUENCE": "GACGAGCAAUAUUACGAGUA",
    "REPORTED RESULT": -3.81
  },
  {
    "CONSTRUCT SEQUENCE": "GCGCAGCAAUAUUACGGAAA",
    "REPORTED RESULT": -1.97
  },
  {
    "CONSTRUCT SEQUENCE": "AAUGAGCAAUAUUACGCGAA",
    "REPORTED RESULT": -3.05
  },
  {
    "CONSTRUCT SEQUENCE": "AUUAAGCAAUAUUACGUGCG",
    "REPORTED RESULT": -0.862
  },
  {
    "CONSTRUCT SEQUENCE": "CGCUAGCAAUAUUACGACCU",
    "REPORTED RESULT": -1.72
  },
  {
    "CONSTRUCT SEQUENCE": "CCUUAGCAAUAUUACGCGUU",
    "REPORTED RESULT": -3.55
  },
  {
    "CONSTRUCT SEQUENCE": "GCAUAGCAAUAUUACGACAU",
    "REPORTED RESULT": -1.03
  },
  {
    "CONSTRUCT SEQUENCE": "ACUGAGCAAUAUUACGGUUG",
    "REPORTED RESULT": -2.76
  }
]

So what does the record say about self-splicing fitness (ln) for "AUGGAGCAAUAUUACGCUAA" ? -3.13

Now the same for "ACAAAGCAAUAUUACGUCUC" -4.03

// next record "CUAGAGCAAUAUUACGAUAC" -2.63

How about "UACCAGCAAUAUUACGGCGA" ? -0.21

# repeat for "UGUCAGCAAUAUUACGCGGG" -3.8

Same question for "CCUCAGCAAUAUUACGAAUG" please. -1.01
